# TARGET: HU alpha-beta heterodimer (Escherichia coli, UniProt P0ACF0;P0ACF4 1-90;1-90)
# Sequence (P0ACF0 whole entry, chain 1 of 2): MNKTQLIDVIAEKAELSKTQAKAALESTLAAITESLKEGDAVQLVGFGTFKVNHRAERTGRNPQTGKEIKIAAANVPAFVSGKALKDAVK
# Sequence (P0ACF4 whole entry, chain 2 of 2): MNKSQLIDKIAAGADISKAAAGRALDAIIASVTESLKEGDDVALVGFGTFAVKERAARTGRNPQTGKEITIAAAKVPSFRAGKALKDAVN
# EXPERIMENT: EMSA
QUANTITY MEASURED: Kd (nM)

{"BINDER": "AGTCTAGAGTGCAGTTGAGTCCTTGCTACGAC (ssDNA) [ssDNA D-32]", "UNITS LABEL": "nM", "MEASURED": 114}
